Record form. Attribute: MIC90. Fill in for each entry.
Test system: Mycobacterium tuberculosis
Assay: microbe, parasite or virus in culture
Settings: 168 h

query: Looking for the measured MIC90 of "Cc1ccc(S(=O)(=O)N2CCN(Cc3ccc([N+](=O)[O-])o3)CC2)cc1" , can you help?
result: 14.6 µM

query: Can you check CO[C@H]1/C=C/O[C@@]2(C)Oc3c(C)c(O)c4c(O)c(c(/C=N/N5CCN(C)CC5)c(O)c4c3C2=O)NC(=O)/C(C)=C\C=C\[C@H](C)[C@H](O)[C@@H](C)[C@@H](O)[C@@H](C)[C@H](OC(C)=O)[C@@H]1C [RIFAMPIN] next?
result: 156 µM

query: What would you report for "O=[N+]([O-])c1ccc(CN2CCN(c3ccc(N4CCOCC4)cc3)CC2)o1" ?
result: 0.08 µM

query: Then "COc1cccc(N2CCN(Cc3ccc([N+](=O)[O-])o3)CC2)c1" ?
result: 0.09 µM

query: Another compound to look at: "CC(C)(C)c1ccc(N2CCN(Cc3ccc([N+](=O)[O-])o3)CC2)cc1"
result: > 25.2 µM

query: // next record "O=[N+]([O-])c1ccc(CN2CCN(S(=O)(=O)c3ccc(F)cc3)CC2)o1"
result: 1 µM

query: Okay, and "O=[N+]([O-])c1ccc(CN2CCN(c3ccc(Cl)cc3)CC2)o1" ?
result: 0.029 µM

query: And then COc1c(N2CCNC(C)C2)c(F)cc2c(=O)c(C(=O)O)cn(C3CC3)c12 (stereo not drawn) [GATIFLOXACIN] , what is it?
result: 1.33 µM
